Provide the reported IC50 of each item.
- target.or.system: HIV-1 integrase (wild-type IN) (Human immunodeficiency virus type 1 group M subtype B)
- assay.protocol: HIV-1 integrase 3′-processing assay (32P-labeled 21-mer, gel)
- Format: biochemical
- assay.conditions: unit inferred; read-out: IN inhibition activity 3′-processing
// units = µM; emit number, no label

Query: If you can, please state the reported IC50 value of Cc1ccc(-n2c(SCC(=O)NNC(=O)c3ccccc3O)nnc2-c2ccccc2)cc1 [AS120] .
Response: 23

Query: If you can, please state the reported IC50 value of COc1ccccc1-n1c(SCC(=O)NNC(=O)c2ccccc2O)nnc1-c1ccccc1O [AS9A6] .
Response: 8

Query: If you can, please state the reported IC50 value of COc1ccc(C2C(C(=O)c3ccc(Br)cc3)=C(O)C(=O)N2c2cc(C(C)(C)C)on2)cc1OC (stereo not shown) [AS171] .
Response: 45
